Could you please report measured pIC50 for the items listed next?
System: PC-3 cells
method.description: MTT assay, PC-3 cells
Type: cell-based
condition.details: human prostate cancer cells, 72 h, read-out: Cytotoxic activity (IC50) PC-3
pIC50: −log10 of the molar value.

Consider the following items and state reported pIC50 for each.
1. O=c1c2c3c(sc2nc(-c2cccc(Cl)c2)n1Cc1ccccc1)COCC3
2. O=c1c2c3c(sc2nc(-c2ccccc2)n1Cc1ccccc1)CCCC3
3. Cc1cc(-c2nc3sc4c(c3c(=O)n2CCc2ccc(O)cc2)CCCCC4)sc1C
4. O=c1c2c3c(sc2nc(-c2ccco2)n1Cc1ccccc1)CCCCC3

4.03
< 4.00
4.07
< 4.00

Below is a list of compounds. For each, state its recorded pIC50.
1. O=c1c2c3c(sc2nc(-c2cccs2)n1Cc1ccccc1)CCCC3
2. Cc1ccc(-c2nc3sc4c(c3c(=O)n2Cc2ccccc2)CCCC4)o1
3. CC[C@@]1(O)C(=O)OCc2c1cc1n(c2=O)Cc2cc3ccccc3nc2-1 [CAMPTOTHECIN, camptothecin, reference compound]
4. O=c1c2c3c(sc2nc(-c2ccc(C(F)(F)F)c(C(F)(F)F)c2)n1Cc1ccccc1)CCCC3
5. Cc1cc(-c2nc3sc4c(c3c(=O)n2CCc2ccc(O)cc2)CCCC4)sc1C

1: < 4.00; 2: 4.03; 3: 6.07; 4: < 4.00; 5: 4.06

Go through the list and state pIC50 for each entry.
1. Cc1sc2nc(-c3ccc(F)cc3)n(Cc3ccccc3)c(=O)c2c1C
2. Cc1ccc(-c2nc3sc4c(c3c(=O)n2Cc2ccccc2)CCCCC4)o1
3. Cc1sc2nc(-c3ccc(Cl)cc3)n(CCc3ccc(O)cc3)c(=O)c2c1C
4. O=c1c2c3c(sc2nc(-c2ccc(Cl)cc2)n1Cc1ccccc1)CCCCC3
5. Cc1ccc(-c2nc3sc4c(c3c(=O)n2CCc2ccc(O)cc2)CCOC4)cc1
6. Cc1cc(-c2nc3sc4c(c3c(=O)n2Cc2ccccc2)CCCC4)sc1C

< 4.00
4.04
< 4.00
< 4.00
< 4.00
< 4.00

Would you mind giving pIC50 for every compound in the list below?
1. O=c1c2c3c(sc2nc(-c2ccc(F)cc2)n1CCc1ccc(O)cc1)CCCC3
2. O=c1c2c3c(sc2nc(-c2ccc(Cl)cc2)n1Cc1ccccc1)CCCC3

1: < 4.00; 2: < 4.00

---

Tested on: PC-3 cells
method.description: MTT assay, PC-3 cells
Assay type: cell-based
condition.details: human prostate cancer cells, 72 h, read-out: Cytotoxic activity (IC50) PC-3
Please respond with reported pIC50 for every item in the list.
Answers are plain numbers, as −log10 of the molar value.

Each molecule below has a reported value. Please supply its pIC50.
1. O=c1c2c3c(sc2nc(-c2ccc(Cl)cc2)n1CCc1ccc(O)cc1)CCCCC3 [Compound 19]
2. Cc1ccc(-c2nc3sc4c(c3c(=O)n2CCc2ccc(O)cc2)CCCC4)cc1 [Compound 10]
3. Cc1cc(-c2nc3sc4c(c3c(=O)n2Cc2ccccc2)CCCCC4)sc1C [Compound 13]
4. O=c1c2c3c(sc2nc(-c2cccs2)n1CCc1ccc(O)cc1)CCCC3 [Compound 12]
5. O=c1c2c3c(sc2nc(-c2ccccc2)n1CCc1ccc(O)cc1)CCCCC3 [Compound 15]

1: 4.60; 2: 4.36; 3: 4.03; 4: 4.66; 5: 4.32
